Values compiled from paper PMC9482650.

# TARGET_DESC: HTRA2, O43464
# Sequence (O43464 355-458): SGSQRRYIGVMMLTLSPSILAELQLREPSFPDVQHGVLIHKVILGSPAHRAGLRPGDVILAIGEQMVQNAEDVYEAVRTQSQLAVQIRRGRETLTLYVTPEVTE
# ASSAY_METHOD_TEXT: holdup assay
# Set-up: key: below the threshold = too weak to quantify, mostly under pKd 3.1 to 4
# MEASUREMENT_CONTEXT: plain residues with an end cap or a label only (N-terminal biotin on a linker: ttds)
ASSAY_ENDPOINT: pKd

# count of solved cases: 4
[
  {
    "BINDER": "VNKVWDQSSV [CIT, O14578]",
    "REPORTED_RESULT": "below the threshold"
  },
  {
    "BINDER": "SEKHFRETEV [HTLV1-TAX1, P03409]",
    "REPORTED_RESULT": "below the threshold"
  },
  {
    "BINDER": "LDSQIQETSI [MAP4, P27816]",
    "REPORTED_RESULT": "below the threshold"
  },
  {
    "BINDER": "DPRNTQTSQI [ABRAXAS2, Q15018]",
    "REPORTED_RESULT": "below the threshold"
  }
]

Now turn to the next binder.
Sure, the documented pKd for LCALPKVTTV [AGMAT, Q9BSE5] is 3.8
